Source of measurements: patent US20220324934A1

Target: T1, IL-2Rβ (UniProt P14784 27-240, limits assumed, biotinylated (site not stated))
T1 construct: also called CD122; IL-2Rbeta
T1 sequence (looked up): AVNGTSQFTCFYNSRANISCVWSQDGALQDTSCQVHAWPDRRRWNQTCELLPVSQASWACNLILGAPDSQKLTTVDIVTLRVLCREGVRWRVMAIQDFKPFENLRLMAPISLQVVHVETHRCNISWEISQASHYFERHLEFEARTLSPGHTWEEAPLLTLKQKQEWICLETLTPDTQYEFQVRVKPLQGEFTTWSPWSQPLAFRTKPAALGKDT
Experiment: SPR Biacore T100, kinetic fit; biotinylated IL-2Rβ on chip
REPORTED METRIC: koff (s⁻¹)
Reply with just the number (in s⁻¹).

Examples with their reported koff follow.
- BINDER: "in silico designed IL-2 variant SEQ ID NO: 7, MSA fusion protein (ligand, not shown: large carriers; small tags and cut ends) APTSSSTKKTQLQLEHLLLDLQMILNMLNNYDNPKLTRMLTFKFYMPKKATELKHLQCLEEELKPLEEALNQADSTDETVRDLISNINVIVLELKGSETTFMCEYADETATIIEFLNRWITFCQSIISTLT"
  koff / s⁻¹: 0.0026
- BINDER: "in silico designed IL-2 variant SEQ ID NO: 16, MSA fusion protein (ligand, not shown: large carriers; small tags and cut ends) APTSSSTKKTQLQLEHLLLDLQMILNMLNNYDNPKLTRLLTFKFYMPKKATSLKHLQCLEEELKPLEEALNQAQSKNFHLDPRDLISNINVIVLELKGSETTFMCEYADETATIIEFLNRWITFCQSIISTLT"
  koff / s⁻¹: 0.071

What value of koff has been recorded for this entry: in silico designed IL-2 variant SEQ ID NO: 3, MSA fusion protein (ligand, not shown: large carriers; small tags and cut ends) APTSSSTKKTQLQLEHLLLDLQMILNMLNNYDNPKLTRLLTFKFYMPKKATSLKHLQCLEEELKPLEEALNAAGDDPKTIRDLISNINVIVLELKGSETTFMCEYADETATIIEFLNRWITFCQSIISTLT
0.042

Need koff, item in silico designed IL-2 variant SEQ ID NO: 12, MSA fusion protein (ligand, not shown: large carriers; small tags and cut ends) APTSSSTKKTQLQLEHLLLDLQMILNMLNNYDNPKLTRMLTFKFYMPKKATELKHLQCLEEELKPLEEALNHAADDKDTIRDLISNINVIVLELKGSETTFMCEYADETATIIEFLNRWITFCQSIISTLT
0.023
